The reader will find reported MIC grade, A. FUMIGATUS, YAG media values listed item by item below.
Test system: Aspergillus fumigatus
Assay Name: Minimum inhibitory concentration, YAG medium
Assay type: cell-based
Assay Context: banded MIC grade
Measure Name: MIC grade, A. FUMIGATUS, YAG media

- Compound: "COCCCCCC1=NN=C(N)SC1"
  Result: "4 (4: <0.2 mg/L)"
- Compound: "NC1=NN=C(CCCCc2ccccc2)CS1"
  Result: "4 (4: <0.2 mg/L)"
- Compound: "NC1=NN=C(c2ccccc2)CS1"
  Result: "3 (3: 0.2-1 mg/L)"
- Compound: "NC1=NN=C(CCCCOCc2ccc(Cl)cc2)CS1"
  Result: "4 (4: <0.2 mg/L)"
- Compound: "NC1=NN=C(c2cccc(Cl)c2)CS1"
  Result: "1 (1: ≥5 mg/L)"
- Compound: "NC1=NN=C(CCCCOCc2cccc(C(F)(F)F)c2)CS1"
  Result: "3 (3: 0.2-1 mg/L)"
- Compound: "NC1=NN=C(COc2ccccc2)CS1"
  Result: "4 (4: <0.2 mg/L)"
- Compound: "NC1=NN=C2c3ccccc3CCC2S1 (centres unmarked)"
  Result: "2 (2: 1-5 mg/L)"
- Compound: "CC(C)OCCC1=NN=C(N)SC1"
  Result: "4 (4: <0.2 mg/L)"
- Compound: "NC1=NN=C(CCCCCOc2ccc(F)cc2)CS1"
  Result: "4 (4: <0.2 mg/L)"
- Compound: "NC1=NN=C(CCOCCOc2ccccc2)CS1"
  Result: "4 (4: <0.2 mg/L)"

Recorded values, source patent US20180201592A1.
